# Tested on: ACHN renal
# procedure.summary: NCI tumour cell line growth inhibition, 48 h
Recorded TGI by entry

Check out these entries, answers already filled in.
CCCCCCN1CCN(Cc2ccc(N(CC)CC)cc2)C(=O)C1=O	> 100 µM
COc1ccc(/C=C\c2cc(OC)c(OC)c(OC)c2)cc1OCC(=O)Nc1nc2ccc(OC(F)(F)F)cc2s1	> 100 µM
Cc1ccc2nc(N/N=C/c3cccc(C)n3)cc(C)c2c1	31.4 µM
CCOC(=O)C1=C(c2ccccc2)N(c2ccc(OC)cc2)[C@]2(C#N)C(O)=C(Cl)C(Cl)=C(O)[C@]12C#N	42.1 µM
C#CCOC(=O)C(N)CCCN=C(N)N (stereo not given)	> 100 µM

In: TGI lookup needed for CC(=O)NC1=C(C)C(=O)c2c(nc3n2CC[C@H]3OC(C)=O)C1=O , thanks.
Out: 9.34 µM

In: TGI lookup needed for CCOC(=O)[C@H]1Nc2ccc(Cl)cc2[C@H]2c3ccccc3O[C@H]21 , thanks.
Out: > 100 µM

In: TGI lookup needed for O=C(NN1C(=O)C=CC1=O)c1ccccc1Nc1ccccc1C(=O)NN1C(=O)C=CC1=O , thanks.
Out: > 100 µM

In: TGI lookup needed for c1ccc(C2=C(c3ccccc3)P(c3ccccc3)C2)cc1 (stereo not given) , thanks.
Out: > 100 µM

In: TGI lookup needed for Cc1cccc2c1C/C(=C\c1cccc(C)c1C(=O)O)C2=O , thanks.
Out: > 100 µM

---

# Tested on: CAKI-1 renal
# procedure.summary: NCI tumour cell line growth inhibition, 48 h; in the data active = GI50 below about 0.43 µM; inactive = the rest
Write down one outcome, taken from true (1) for active, false (0) for inactive

# example entries with known answers
COc1cc2c(cc1OCCCN1CCN(c3cc(=O)oc4c(C)c(OC)ccc34)CC1)N=C[C@@H]1CCCN1C2=O	false (0)
NC1=NC(c2ccc(F)cc2)C2=C(N1)c1ccc3ccccc3c1OCC2 (configuration not stated)	false (0)
NC(N)=N/N=C/c1c(-c2ccc(Cl)c([N+](=O)[O-])c2)nc2ccccn12	false (0)
COc1cc2ncn(-c3cc(OCc4ccccc4S(C)(=O)=O)c(C#N)s3)c2cc1OC	false (0)

In: State the result this test recorded for COc1ccc(C2=C(c3cc(OC)c(OC)c(OC)c3)C(=O)OC2)cc1OC .
Out: true (1)

In: State the result this test recorded for CO/N=C(/COc1c(-c2ccccc2)oc2ccccc2c1=O)c1ccc(F)cc1 .
Out: false (0)

---

Recorded TGI by entry
# Test system: HT29 colon
# procedure.summary: NCI tumour cell line growth inhibition, 48 h

Check out these entries, answers already filled in.
Nc1ccc(-n2c(=O)oc3ccc(Cl)cc3c2=O)c(Cl)c1	> 35.3 µM
COc1cc(/C=C2\C(=O)Nc3ccccc32)cc(OC)c1OC	> 100 µM
CCOC(=O)[C@H]1Nc2ccc(Cl)cc2[C@H]2c3ccccc3O[C@H]21	> 100 µM

In: State its TGI on HT29 colon: CCN1CCC(CC(=O)Nc2n[nH]c3nc(-c4cccs4)c(Br)cc23)CC1
Out: 11.1 µM

In: State its TGI on HT29 colon: O=C1OCC2=C1C(c1cccc(C(F)(F)F)c1)c1cc3c(cc1N2CCO)CCC3 (stereo not given)
Out: 5.27 µM

In: State its TGI on HT29 colon: CC(C)(NC1=NCCO1)c1ccccc1
Out: > 100 µM

In: State its TGI on HT29 colon: C=C1C(=O)O[C@H]2C[C@@H]1CCC1(C)OC1CC/C(C)=C/CC[C@H]2C (stereo not given in full)
Out: 34.3 µM

In: State its TGI on HT29 colon: CCS(=O)(=O)c1c2cc(OC)ccc2nc2ccc(OC)cc12
Out: > 100 µM

In: State its TGI on HT29 colon: CC(=O)OC12CC(C)C3(O)C4C=C(C)C(=O)[C@@]4(O)CC(CO)=C[C@H]3C1C2(C)C (stereo not given in full)
Out: > 1000 µM

In: State its TGI on HT29 colon: O=C1C[C@H](c2ccccc2)C2(C(=O)c3ccccc3C2=O)[C@H](c2ccccc2)C1
Out: > 100 µM
